Ref: patent US12319739

Tgt: T1, endogenous cell surface human MSLN (human, UniProt Q13421 296-598)
T1 construct: whole, on cells; The cell line is named under assay; also called cell-surface MSLN on NCI-H226, OVCAR-3 and AsPC-1 cells
Assay: flow cytometry, NCI-H226 cells
Description: To confirm binding to cell surface MSLN, mAb² listed in Table 9 were analysed for binding to endogenous cell surface MSLN on the human lung cancer cell line NCI-H226. In addition, and because MSLN can be found in blood in a shed soluble form, there is a risk that this circulating MSLN might affect exposure and ultimately potency of our mAb². […]
Endpoint: EC50 (nM)
Give bare numbers, in nM.

Look over these answered cases.
{"columns": ["Binder", "Test result"],
 "data": [
  ["FS22-172-003-AA/FS28-185 (bispecific antibody, human IgG1, kappa, L234A L235A, V domains shown, IgG1 mAb^2 with LALA; also called FS28-185 in CD137 mAb^2 format) VH: EVQLLESGGGLVQPGGSLRLSCAASGFTFTTSAMSWVRQAPGKGLEWVSRINPYEGETNYADSVKGRFTISRDNSKNTLYLQMNSLRAEDTAVYYCARGWSIATYYKSAMDYWGQGTLVTVSS VL: EIVLTQSPGTLSLSPGERATLSCRASQSVSSSYLAWYQQKPGQAPRLLIYGASSRATGIPDRFSGSGSGTDFTLTISRLEPEDFAVYYCQQSSYSAPVTFGQGTKVEIKR", 22.9],
  ["FS22-172-003-AA/FS28-256-018 (bispecific antibody, human IgG1, kappa, L234A L235A, V domains shown, IgG1 mAb^2 with LALA) VH: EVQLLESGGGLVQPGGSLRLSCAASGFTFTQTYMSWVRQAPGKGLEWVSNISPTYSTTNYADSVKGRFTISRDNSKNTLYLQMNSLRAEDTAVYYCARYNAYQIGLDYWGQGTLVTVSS VL: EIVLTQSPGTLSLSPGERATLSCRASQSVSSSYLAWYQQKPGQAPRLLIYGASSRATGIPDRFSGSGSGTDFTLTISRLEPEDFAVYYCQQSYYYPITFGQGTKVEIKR", 3.6],
  ["FS22-172-003-AA/FS28-256-014 (bispecific antibody, human IgG1, kappa, L234A L235A, V domains shown, IgG1 mAb^2 with LALA) VH: EVQLLESGGGLVQPGGSLRLSCAASGFTFTDTYMSWVRQAPGKGLEWVSNISPTYSTTNYADSVKGRFTISRDNSKNTLYLQMNSLRAEDTAVYYCARYNAYAAGLDYWGQGTLVTVSS VL: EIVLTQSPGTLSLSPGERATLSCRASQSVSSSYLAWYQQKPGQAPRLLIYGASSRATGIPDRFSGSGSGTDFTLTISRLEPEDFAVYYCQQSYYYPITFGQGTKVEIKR", 0.727],
  ["FS22-172-003-AA/FS28-024-060 (bispecific antibody, human IgG1, kappa, L234A L235A, V domains shown, IgG1 mAb^2 with LALA) VH: EVQLLESGGGLVQPGGSLRLSCAASGFTLSYSSMSWVRQAPGKGLEWVSFITPSTGYTHYADSVKGRFTISRDNSKNTLYLQMNSLRAEDTAVYYCARRALWFDYWGQGTLVTVSS VL: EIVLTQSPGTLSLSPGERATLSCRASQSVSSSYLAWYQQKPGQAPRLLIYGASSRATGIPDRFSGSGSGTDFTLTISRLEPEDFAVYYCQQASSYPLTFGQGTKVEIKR", 0.695]
]}

Field: next binder
Record FS22-172-003-AA/FS28-256-027 (bispecific antibody, human IgG1, kappa, L234A L235A, V domains shown, IgG1 mAb^2 with LALA) VH: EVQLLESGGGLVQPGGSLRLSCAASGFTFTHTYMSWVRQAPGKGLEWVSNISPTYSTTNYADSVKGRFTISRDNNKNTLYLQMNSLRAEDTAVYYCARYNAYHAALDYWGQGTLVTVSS VL: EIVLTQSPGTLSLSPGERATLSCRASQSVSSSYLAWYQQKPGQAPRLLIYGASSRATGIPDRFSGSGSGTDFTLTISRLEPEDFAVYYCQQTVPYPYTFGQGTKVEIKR . Reported EC50: 0.613
